- experimentalSystem: Ret(V804L)(h) (Homo sapiens, UniProt P07949, V804L)
- Construct: purchased Millipore (IC50 Profiler Express service)
- assayRemarks: Kinase Profiling Assay
- Format: biochemical
- reportedConditions: 100 μM peptide
readout: Ret(V804L)(h) % activity
Be sure to follow the number with its unit.

For orientation, consider the following solved cases.
# sequenceCode, result
rows = [
    ("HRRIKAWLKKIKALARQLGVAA (Mammalian) [MMI-0500]", "20%"),
    ("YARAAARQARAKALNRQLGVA (Mammalian) [MMI-0200]", "100%"),
    ("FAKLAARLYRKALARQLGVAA [MMI-0300]", "79%"),
]

Now let's try a different one.
stdin: Suppose we examine the sequence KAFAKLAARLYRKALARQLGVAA [MMI-0400] ; what Ret(V804L)(h) % activity value has been reported?
stdout: 73%
